These data points were gathered from ChEMBL document CHEMBL3885861.

- Organism: Rattus norvegicus
- PROCEDURE_TEXT: Open TG-GATES - Regimen: Daily Repeat
- Type: toxicity, organism-based, Sprague-Dawley
- Set-up: regimen Daily Repeat, gender Male, age 6 weeks
- RUN_PARAMETERS: in vivo, po, 1000 mg/kg, […], tissue Plasma, route gavage, dose level High, time 28 day
REPORTED_METRIC: DBIL (mg/dL)
Please give a number only; it is taken to be in mg/dL.

Check out these entries, answers already filled in.
The measured DBIL associated with `CC(C)(S)[C@@H](N)C(=O)O` reads 0.02

Sure, the documented DBIL for CCN1CCCC1CNC(=O)c1cc(S(N)(=O)=O)ccc1OC (centres undefined) [SULPIRIDE] is 0.012

Form: molecule = `O=C(N[C@H](CO)[C@H](O)c1ccc([N+](=O)[O-])cc1)C(Cl)Cl` ; DBIL = 0.016

// below: DBIL requested for another molecule
`O=C(O)c1cccnc1` has a reported DBIL of 0

----------
Each entry below carries its recorded LDH.
- Species on record: Rattus norvegicus
- PROCEDURE_TEXT: Open TG-GATES - Regimen: Daily Repeat
- Format: toxicity, organism-based, Sprague-Dawley
- Set-up: regimen Daily Repeat, gender Male, age 6 weeks
- RUN_PARAMETERS: in vivo, po, 1000 mg/kg, […], tissue Plasma, route gavage, dose level High, time 28 day
Express it in IU/L; write the number only.

The compound listed as `CC(C)(S)[C@@H](N)C(=O)O` shows LDH equal to 70.4

LDH reported for this compound `O=C(O)c1cccnc1` : 157.4

Kindly note the recorded LDH for `O=C(N[C@H](CO)[C@H](O)c1ccc([N+](=O)[O-])cc1)C(Cl)Cl` , which is 53.4

# LDH (compound: CCN1CCCC1CNC(=O)c1cc(S(N)(=O)=O)ccc1OC (centres undefined) [SULPIRIDE] ) is 55.6

----------
Each record here notes measured PT.
- Organism: Rattus norvegicus
- PROCEDURE_TEXT: Open TG-GATES - Regimen: Daily Repeat
- Format: toxicity, organism-based, Sprague-Dawley
- Parameters: regimen Daily Repeat, gender Male, age 6 weeks
- RUN_PARAMETERS: in vivo, po, 1000 mg/kg, […], tissue Blood, route gavage, dose level High, time 28 day
Please reply with the bare figure in s and do not write the unit itself.

Field: example entries. Status: answers known.
Notebook: `O=C(N[C@H](CO)[C@H](O)c1ccc([N+](=O)[O-])cc1)C(Cl)Cl` , PT read as 15.5

The measured PT associated with `CC(C)(S)[C@@H](N)C(=O)O` reads 15.7

Continuing:
What the record says about CCN1CCCC1CNC(=O)c1cc(S(N)(=O)=O)ccc1OC (centres undefined) [SULPIRIDE] : PT is 13.3

Reported PT of `O=C(O)c1cccnc1` : 15.8

----------
- Species: Rattus norvegicus
- PROCEDURE_TEXT: Open TG-GATES - Regimen: Single
- Assay type: toxicity, organism-based, Sprague-Dawley
- Set-up: regimen Single, gender Male, age 6 weeks
- RUN_PARAMETERS: in vivo, po, 0 mg/kg, 6 h, tissue Plasma, route gavage, dose level Control
Response field label takes satisfied when LDH is strictly below 80 IU/L and not satisfied in all other cases.

Consider the compound `CCC(C)(C)C(=O)O[C@H]1C[C@@H](C)C=C2C=C[C@H](C)[C@H](CC[C@@H]3C[C@@H](O)CC(=O)O3)[C@H]21` . Is its LDH strictly less than 80 IU/L?
satisfied

Further cases:
I wonder whether CC(C)C(=O)Nc1ccc([N+](=O)[O-])c(C(F)(F)F)c1 [FLUTAMIDE] has LDH below 80 IU/L. Can you tell?
not satisfied

State whether 80 IU/L exceeds LDH recorded for CC(=N)S [THIOACETAMIDE] .
satisfied

Consider `O=C(O)c1cccnc1` . Does its LDH lie strictly below 80 IU/L?
not satisfied

Problem: For the compound `CC(C)(S)[C@@H](N)C(=O)O` , is LDH under 80 IU/L?
satisfied

is_below(LDH, 80 IU/L) for `C[C@](N)(Cc1ccc(O)c(O)c1)C(=O)O` ?
satisfied

----------
- Organism: Rattus norvegicus
- PROCEDURE_TEXT: Open TG-GATES - Regimen: Daily Repeat
- Format: toxicity, organism-based, Sprague-Dawley
- Parameters: regimen Daily Repeat, gender Male, age 6 weeks
- RUN_PARAMETERS: in vivo, po, 1000 mg/kg, […], tissue Plasma, route gavage, dose level High, time 28 day
REPORTED_METRIC: TP (g/dL)
Output spec: scalar in g/dL, unitless text.

Consider CCN1CCCC1CNC(=O)c1cc(S(N)(=O)=O)ccc1OC (centres undefined) [SULPIRIDE] . Its measured TP is 6.3

So, `O=C(N[C@H](CO)[C@H](O)c1ccc([N+](=O)[O-])cc1)C(Cl)Cl` ? Its TP was 5.6

Input `CC(C)(S)[C@@H](N)C(=O)O` . Output TP: 5.9

Value of TP reported for the molecule `O=C(O)c1cccnc1` is 5.8

----------
- Species: Rattus norvegicus
- PROCEDURE_TEXT: Open TG-GATES - Regimen: Single
- Assay type: toxicity, organism-based, Sprague-Dawley
- Design: regimen Single, gender Male, age 6 weeks
- RUN_PARAMETERS: in vivo, po, 0 mg/kg, 6 h, tissue Blood, route gavage, dose level Control
Measured Mono of individual entries
Field: numeric (%). Do not append units.

Some entries whose results are on file:
Mono for `CC(=O)Oc1cc(C(C)C)c(OCCN(C)C)cc1C` is 1.8

# Mono of `CCc1oc2ccccc2c1C(=O)c1cc(I)c(O)c(I)c1` = 5

Per the records, this compound ( `Oc1ncnc2[nH]ncc12` ) has Mono equal to 5.6

Form field Mono, entry `O=C(O)c1cccnc1` : 2.8

// Mono lookup, compound = `O=C(N[C@H](CO)[C@H](O)c1ccc([N+](=O)[O-])cc1)C(Cl)Cl` , result: 2.6

response.value for CC(C)C(=O)Nc1ccc([N+](=O)[O-])c(C(F)(F)F)c1 [FLUTAMIDE] (field: Mono) = 3.2

Mono in this record for `C[C@](N)(Cc1ccc(O)c(O)c1)C(=O)O` : 3.8

GET /value?item= `C[C@]12CCC(=O)C=C1CC[C@@H]1[C@@H]2CC[C@@]2(C)[C@H]1CC[C@]2(C)O` &field=Mono returns 3.6

Noted for CC(=N)S [THIOACETAMIDE] : its Mono reads 7.8

Per the record, CCN1CCCC1CNC(=O)c1cc(S(N)(=O)=O)ccc1OC (stereo not given) [SULPIRIDE] has Mono of 2.4

Further cases:
In plain terms, `CN1C(=O)OC(C)(C)C1=O` has a documented Mono of 2.4

Per the records, this compound ( `Nc1nc(N)c2nc(-c3ccccc3)c(N)nc2n1` ) has Mono equal to 2.6

GET /value?item= `CC(C)(S)[C@@H](N)C(=O)O` &field=Mono returns 2.6

Looking up `CCSCC[C@H](N)C(=O)O` , I see its Mono listed as 2.8

`CCC(C)(C)C(=O)O[C@H]1C[C@@H](C)C=C2C=C[C@H](C)[C@H](CC[C@@H]3C[C@@H](O)CC(=O)O3)[C@H]21` has a reported Mono of 6.2

----------
PL values, listed per item
- Species: Rattus norvegicus
- PROCEDURE_TEXT: Open TG-GATES - Regimen: Single
- Type: toxicity, organism-based, Sprague-Dawley
- Set-up: regimen Single, gender Male, age 6 weeks
- RUN_PARAMETERS: in vivo, po, 0 mg/kg, 6 h, tissue Plasma, route gavage, dose level Control
Report the figure in mg/dL without appending any unit label.

Before answering, review these 4 worked examples.
GET /value?item= `C[C@]12CCC(=O)C=C1CC[C@@H]1[C@@H]2CC[C@@]2(C)[C@H]1CC[C@]2(C)O` &field=PL returns 133.4

Form: molecule = `CC(C)(S)[C@@H](N)C(=O)O` ; PL = 135

According to the records, this molecule `CC(=O)Oc1cc(C(C)C)c(OCCN(C)C)cc1C` displays PL of 125.4

Briefly, PL measured for CC(C)C(=O)Nc1ccc([N+](=O)[O-])c(C(F)(F)F)c1 [FLUTAMIDE] : 157

Now consider a different molecule.
Value of measured PL for the entry `CCSCC[C@H](N)C(=O)O` : 145

----------
- Organism: Rattus norvegicus
- PROCEDURE_TEXT: Open TG-GATES - Regimen: Daily Repeat
- Type: toxicity, organism-based, Sprague-Dawley
- Set-up: regimen Daily Repeat, gender Male, age 6 weeks
- RUN_PARAMETERS: in vivo, po, 0 mg/kg, 72 h, tissue Blood, route gavage, dose level Control, time 3 day
Measured Plat accompanies every entry in the list below.
Report the value in x10_4/uL with no unit label.

Noted for Oc1ncnc2[nH]ncc12 [ALLOPURINOL] : its Plat reads 93.5

Entry CCc1oc2ccccc2c1C(=O)c1cc(I)c(O)c(I)c1 [BENZIODARONE] — recorded Plat = 125.7

Record CCN1CCCC1CNC(=O)c1cc(S(N)(=O)=O)ccc1OC (stereo unspecified) [SULPIRIDE] . Reported Plat: 117.1

Looking up C#C[C@]1(O)CC[C@H]2[C@@H]3CCc4cc(O)ccc4[C@H]3CC[C@@]21C [ETHINYL ESTRADIOL] , I found its Plat recorded as 110.8

Reported Plat for CC(C)(S)[C@@H](N)C(=O)O [PENICILLAMINE] was 131.2

GET /value?item= O=C(O)c1cccnc1 [NIACIN] &field=Plat returns 125.7

Consider C[C@](N)(Cc1ccc(O)c(O)c1)C(=O)O [METHYLDOPA] . Its measured Plat is 117.2

Briefly, Plat measured for CC(C)C(=O)Nc1ccc([N+](=O)[O-])c(C(F)(F)F)c1 [FLUTAMIDE] : 122.4

Record CCSCC[C@H](N)C(=O)O [ETHIONINE] . Reported Plat: 126.2

Input C[C@]12CCC(=O)C=C1CC[C@@H]1[C@@H]2CC[C@@]2(C)[C@H]1CC[C@]2(C)O [METHYLTESTOSTERONE] . Output Plat: 119.6

Others:
Plat recorded for this molecule, CCC(C)(C)C(=O)O[C@H]1C[C@@H](C)C=C2C=C[C@H](C)[C@H](CC[C@@H]3C[C@@H](O)CC(=O)O3)[C@H]21 [SIMVASTATIN] , is 121.1

The molecule listed as O=C(N[C@H](CO)[C@H](O)c1ccc([N+](=O)[O-])cc1)C(Cl)Cl [CHLORAMPHENICOL] has a reported Plat of 109.8

Measured Plat of CN1C(=O)OC(C)(C)C1=O [TRIMETHADIONE] : 131

Briefly, Plat measured for CC(=N)S [THIOACETAMIDE] : 111.4

According to the records, this molecule CC(=O)Oc1cc(C(C)C)c(OCCN(C)C)cc1C [MOXISYLYTE] displays Plat of 116.4

Plat recorded for this molecule, `Nc1nc(N)c2nc(-c3ccccc3)c(N)nc2n1` , is 128.5
